In this section we review reported Binding assay signal values for a set of binders.
target: T1, biotinylated human plasma Kallikrein (human, UniProt P03952 20-638, biotinylated); test: phage binding assay, signal:background
T1 construct: also called Biotinylated hPK
T1 sequence (P03952 20-638 limits assumed): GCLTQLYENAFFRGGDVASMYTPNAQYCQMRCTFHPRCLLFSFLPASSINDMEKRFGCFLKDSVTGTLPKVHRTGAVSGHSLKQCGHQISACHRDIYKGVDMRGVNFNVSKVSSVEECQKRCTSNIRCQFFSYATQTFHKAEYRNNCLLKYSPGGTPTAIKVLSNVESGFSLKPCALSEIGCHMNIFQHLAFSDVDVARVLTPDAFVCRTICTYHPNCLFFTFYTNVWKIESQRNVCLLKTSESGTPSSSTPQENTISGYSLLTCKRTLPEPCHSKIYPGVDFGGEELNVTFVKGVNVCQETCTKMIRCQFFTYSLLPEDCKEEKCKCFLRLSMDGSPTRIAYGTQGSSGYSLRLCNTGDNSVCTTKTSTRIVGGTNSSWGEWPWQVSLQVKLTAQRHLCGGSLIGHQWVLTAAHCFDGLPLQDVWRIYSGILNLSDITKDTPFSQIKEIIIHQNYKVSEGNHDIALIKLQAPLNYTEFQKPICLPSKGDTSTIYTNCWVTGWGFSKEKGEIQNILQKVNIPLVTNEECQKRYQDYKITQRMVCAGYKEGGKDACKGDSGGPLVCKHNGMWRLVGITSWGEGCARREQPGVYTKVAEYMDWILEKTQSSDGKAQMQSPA
Numbered stars: 1 amine (or outer) side, 2 acyl side, 3 side chain; on linkers, the order of the positions; unused ones are H or OH. Bridge positions count the residues as written; N and C are the ends. Ends that are not written are not given here. TBMB = c1c(C[*:1])cc(C[*:3])cc1C[*:2]
Number only, please.

binder: CRWPARCTHQDLC (linker 1-7-13 via TBMB (inferred)) [SEQ ID NO 134]
recordedMetric: Binding assay signal
recordedNumber: 73
--
binder: CTWPARCTHTDMC (linker 1-7-13 via TBMB (inferred)) [SEQ ID NO 148]
recordedMetric: Binding assay signal
recordedNumber: 67
--
binder: CPWPARCLHTDLC (linker 1-7-13 via TBMB) [SEQ ID NO 163]
recordedMetric: Binding assay signal
recordedNumber: 58
--
binder: CTWPARCTHADLC (linker 1-7-13 via TBMB (inferred)) [SEQ ID NO 139]
recordedMetric: Binding assay signal
recordedNumber: 71
--
binder: CPWPARCTHTDLC (linker 1-7-13 via TBMB (inferred)) [SEQ ID NO 141]
recordedMetric: Binding assay signal
recordedNumber: 70

Request: What value of measured Binding assay signal is listed for CQWPARCTHSDLC (linker 1-7-13 via TBMB (inferred)) [SEQ ID NO 132] ?
Result: 74

Request: Name the recorded Binding assay signal for CSWPARCTHADLC (linker 1-7-13 via TBMB) [SEQ ID NO 118] .
Result: 100
